# System: IGROV1 ovarian
# assay name: NCI-60 one-dose screen, 48 h (100 = growth as untreated, 0 = no growth, -100 = all killed)
# condition context: 10 µM unless noted
The panel holds about 83,000 compounds, 20% with a hit somewhere; the sample as a whole holds those more often. Activity calls are given as the source filed them. How the source made its calls: active means growth percent below 10; inactive means the rest.
Assign growth to each entry below.

Query: For `Cc1ccc2[nH]c(=S)[nH]c(=O)c2c1` , what is its reported growth?
Result: 103% (inactive)

Query: For Cc1nc2sc(C(=O)Nc3cccc(Cl)c3C)c(N)c2cc1C(O)c1ccccc1 (stereo unspecified) , what is its reported growth?
Result: 21.8% (inactive)

Query: For `COc1ccc(-c2csc(NC(=O)CN3CCN(CCO)CC3)n2)cc1NS(=O)(=O)c1cccc2c(N(C)C)cccc12` , what is its reported growth?
Result: 77.3% (inactive)

Query: For `O=C1/C(=C/c2cn(-c3ccccc3)nc2-c2ccccc2)SC(=S)N1c1ccccc1` , what is its reported growth?
Result: 94.5% (inactive)

Query: For `COC(=O)c1nc(-c2ccccc2)oc1S(=O)(=O)N(C)CCO` , what is its reported growth?
Result: 69.2% (inactive)

Query: For `BrC1=C(Br)C(Br)(Br)C(Br)=C1Br` , what is its reported growth?
Result: 98.3% (inactive)

Query: For `COC(=O)/C=C1/SC(=Nc2ccc([N+](=O)[O-])cc2)N(CCc2c[nH]c3ccccc23)C1=O` , what is its reported growth?
Result: 62% (inactive)

Query: For `COc1ccc(Nc2nn3c(SCC(=O)c4ccc(C)cc4)nnc3s2)cc1` , what is its reported growth?
Result: 91.4% (inactive)

Query: For `COc1ccc(/C=N\Nc2nc(SCC(C)C)nc(-c3ccc(OC)cc3)c2C#N)cc1` , what is its reported growth?
Result: -16.3% (active)

Query: For `COc1ccccc1/C=C1\COc2ccc(O)c(O)c2C1=O` , what is its reported growth?
Result: 6.74% (active)

Query: For `Cc1ccc(-c2nc3nc(-c4ccc(Br)cc4)nc(N4CCCNCC4)c3o2)cc1` , what is its reported growth?
Result: -75.6% (active)

Query: For `O=C(Nc1ccc2ncsc2c1)c1csc(Nc2ccc3[nH]ncc3c2)n1` , what is its reported growth?
Result: 59.1% (inactive)

Query: For `OB(O)c1ccsc1-c1nc2ccc3[nH]ncc3c2c2c1CCCC2` , what is its reported growth?
Result: 32.6% (inactive)

Query: For Cc1cnc(C(=O)NNc2nc3sc4c(c3c(=O)[nH]2)C(C)CCC4)cn1 (stereo unspecified) , what is its reported growth?
Result: 14.5% (inactive)

Query: For `COc1ccc(-c2ccccc2)cc1-c1c(Nc2cc(Cl)cc(Cl)c2O)c(=O)c1=O` , what is its reported growth?
Result: 31% (inactive)

Query: For `O=C1/C(=C/c2ccc(-c3ccccc3C(F)(F)F)o2)SC(=S)N1CCc1ccc(O)cc1` , what is its reported growth?
Result: 12.5% (inactive)

Query: For `N#Cc1ccccc1OCC(=O)Nc1nc2c(s1)COc1ccccc1-2` , what is its reported growth?
Result: -3.12% (active)

Query: For N#CC1=C(N)Oc2c(sc3c(Br)cccc23)C1c1ccccn1 (stereo unspecified) , what is its reported growth?
Result: 43.1% (inactive)

Query: For `CC(=NCc1ccccc1)c1ccc(O)cc1O` , what is its reported growth?
Result: 105% (inactive)

Query: For `COc1ccc(/C=C2/C(=O)N=C3N2NC(c2ccccc2)=CN3c2ccccc2)cc1` , what is its reported growth?
Result: 95.9% (inactive)

Query: For `Cc1cc(N2CCCCC2)nc(NCc2cc(Nc3ccnc4cc(Cl)ccc34)ccc2F)n1` , what is its reported growth?
Result: 10.2% (inactive)
